measured.target: T-p53C-Y220C (Homo sapiens, UniProt P04637, M133L/N239Y/N268D/V203A/Y220C)
Construct: For all other experiments, the DNA coding for residues 94-312 of T-p53C was inserted into a modified pET24a(+) vector; 6xHis tag + B. stearothermophilus dihydrolipoyl acetyltransferase lipoyl domain (aa 1-85) + TEV site (N, cleaved yes); made in house; host or cells: Escherichia coli BL21 (DE3) or C41 (DE3)
measurement.description: Thermal denaturation using capillary DSC
Type: binding
run.conditions: at 316-318 K; read-out: approximate KD from DSC stabilization fit
endpoint.label: Kd

In plain terms, CCn1c2ccccc2c2cc(CNC)ccc21 has a documented Kd of ~140 µM
